MEASUREMENT TARGET: AhR (Homo sapiens)
Construct: One of the resultant clones was named HEK-XRE 11.1, and used in the reporter gene assays; endogenous in cells; host or cells: HEK-XRE 11.1 (HEK cells stably carrying the AhR-responsive luciferase reporter X4-4.27 and phRL-CMV)
Sequence (P35869 11-848): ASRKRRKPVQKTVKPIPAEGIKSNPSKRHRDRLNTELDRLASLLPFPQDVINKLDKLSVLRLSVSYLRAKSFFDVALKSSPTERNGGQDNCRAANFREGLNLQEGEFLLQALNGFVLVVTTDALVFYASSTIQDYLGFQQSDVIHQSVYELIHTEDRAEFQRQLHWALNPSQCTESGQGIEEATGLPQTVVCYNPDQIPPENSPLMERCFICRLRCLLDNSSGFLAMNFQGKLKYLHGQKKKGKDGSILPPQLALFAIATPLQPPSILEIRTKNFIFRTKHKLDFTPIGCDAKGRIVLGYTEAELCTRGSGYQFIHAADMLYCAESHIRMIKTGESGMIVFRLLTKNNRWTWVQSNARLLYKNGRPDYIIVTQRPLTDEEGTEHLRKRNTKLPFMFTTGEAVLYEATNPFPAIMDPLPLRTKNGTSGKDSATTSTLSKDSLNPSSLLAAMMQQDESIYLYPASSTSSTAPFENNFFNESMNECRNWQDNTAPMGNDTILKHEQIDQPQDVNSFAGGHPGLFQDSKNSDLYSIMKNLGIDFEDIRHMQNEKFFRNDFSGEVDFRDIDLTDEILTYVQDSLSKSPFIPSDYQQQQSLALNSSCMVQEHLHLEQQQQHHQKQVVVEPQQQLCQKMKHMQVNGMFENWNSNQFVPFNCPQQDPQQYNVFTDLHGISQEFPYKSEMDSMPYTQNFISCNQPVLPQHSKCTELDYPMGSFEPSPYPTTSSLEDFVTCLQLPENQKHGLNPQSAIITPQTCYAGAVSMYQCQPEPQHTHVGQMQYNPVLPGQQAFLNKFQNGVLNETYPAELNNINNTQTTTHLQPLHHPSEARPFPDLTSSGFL
ASSAY NAME: Inhibition of AhR-mediated gene transcription (HEK-XRE 11.1 luciferase reporter, MeBIO induction)
Assay type: cell-based
STUDY CONDITIONS: HEK-XRE 11.1 cells, MeBIO 0.1 nM, luminescence after 24 hours; Table 1
Measured IC50 of individual entries

| COMPOUND | REPORTED VALUE |
| --- | --- |
| Nc1c(C(=O)Nc2ccccc2)sc2ccc(C(F)(F)F)nc12 [Compound 1027] | < 50 nM |
| Nc1c(C(=O)Nc2ccccc2)sc2ccc(C(F)(F)F)cc12 [Compound 1034] | < 50 nM |
| C#Cc1cnc2sc(C(=O)Nc3ccncc3)c(N)c2c1 [Compound 1020] | 50 to 500 nM |
| Cc1cnc2sc(C(=O)Nc3cccc(Cl)c3)c(N)c2c1 [Compound 1139] | < 50 nM |
| COCCc1ccc(NC(=O)c2sc3ncc(C(F)(F)F)cc3c2N)cc1 [Compound 1046] | 50 to 500 nM |
| Nc1c(C(=O)Nc2cc(F)cc(F)c2)sc2ncc(C(F)(F)F)cc12 [Compound 1079] | 50 to 500 nM |

Q. State the recorded IC50 for this entry: Nc1c(C(=O)Nc2ccnc3ccccc23)sc2ncc(C(F)(F)F)cc12 [Compound 1043]
A. > 500 nM

Q. State the recorded IC50 for this entry: Nc1c(C(=O)Nc2ccc(OC(F)F)cc2)sc2ncc(C(F)(F)F)cc12 [Compound 1086]
A. < 50 nM

Q. State the recorded IC50 for this entry: Nc1c(C(=O)Nc2ccncc2)sc2ccc(C(F)(F)F)cc12 [Compound 1035]
A. < 50 nM
